experiment: Cassette dosing and serum analysis for determination of oral bioavailability; assay type: in vivo, rat; settings: male SD rats, oral cassette of 6 compounds, total dose 10 mg/kg, plasma at 4, 8, 12 h
READOUT NAME: AUC (average AUC 0→12 h)

Value lookup for AUC (average AUC 0→12 h); key = CCN(CC)c1ncc(N(C(C)C)S(=O)(=O)c2ccc(Cl)cc2)c(N[C@@H](Cc2ccc(OC(=O)N(C)C)cc2)C(=O)O)n1
0.4251 (μg/mL)h

Value lookup for AUC (average AUC 0→12 h); key = CCN(CC)c1ncc(N(C)S(=O)(=O)c2ccc(Cl)c(Cl)c2)c(N[C@@H](Cc2ccc(OC(=O)N(C)C)cc2)C(=O)O)n1
0.5965 (μg/mL)h

Value lookup for AUC (average AUC 0→12 h); key = CCN(CC)c1ncc(N(C(C)C)S(=O)(=O)c2ccc(F)cc2)c(N[C@@H](Cc2ccc(OC(=O)N(C)C)cc2)C(=O)O)n1
0.5088 (μg/mL)h

Value lookup for AUC (average AUC 0→12 h); key = CCN(CC)c1ncc(N(CC2CC2)S(=O)(=O)c2ccc(F)cc2)c(N[C@@H](Cc2ccc(OC(=O)N(C)C)cc2)C(=O)O)n1
0.7164 (μg/mL)h

Value lookup for AUC (average AUC 0→12 h); key = CCCN(c1cnc(N(CC)CC)nc1NC(Cc1ccc(OC(=O)N(C)C)cc1)C(=O)O)S(=O)(=O)c1ccc(F)cc1 (stereo not drawn)
0.6321 (μg/mL)h

Value lookup for AUC (average AUC 0→12 h); key = CCN(CC)c1ncc(N(C)S(=O)(=O)c2cc(F)cc(F)c2)c(N[C@@H](Cc2ccc(OC(=O)N(C)C)cc2)C(=O)O)n1
0.2098 (μg/mL)h
